B1: KLHL12 (parent)
chain: REESLPNLLQYVRMPLLTPRYITD

# Variants of: B1
# assay_summary: protein stability index of a GFP-peptide fusion (GPS, HEK-293T) (PSI 1-6); higher = more stable;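 further: lentivirally expressed fusions sorted by FACS into six bins by GFP to DsRed ratio, PSI derived from sequencing read proportions per bin multiplied by bin number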
# experimental_setup: c terminus: a fixed tail appended
value_kind: protein stability index
Numbers only.

Sample answers from the record:
N7T 2.1
T18H 2.52
R1N 2.72

Parameters: items (list). Returns: protein stability index for each item.
1. L17Y
2. D24M
3. L17N
4. E2C
5. P19Q
6. Y21F
7. N7S
8. V12Y

1: 2.98; 2: 1.6; 3: 3.42; 4: 3.52; 5: 2.18; 6: 2.22; 7: 2.26; 8: 2.6

Parameters: items (list). Returns: protein stability index for each item.
1. R1L
2. T18L

2.83
2.42

Parameters: items (list). Returns: protein stability index for each item.
1. L8I
2. Q10D
3. T18Y
4. R1K
5. T18G
6. T23I

1: 2.41; 2: 2.06; 3: 1.95; 4: 2.52; 5: 3.92; 6: 2.12

Parameters: items (list). Returns: protein stability index for each item.
1. T18P
2. T18K

1: 2.29; 2: 2.19

Parameters: items (list). Returns: protein stability index for each item.
1. M14A
2. L5V
3. M14V

1: 2.42; 2: 2.59; 3: 2.87

Parameters: items (list). Returns: protein stability index for each item.
1. R1G
2. T18W
3. V12R
4. L5I
5. Y11I
6. L17Q
7. R1Q
8. T18C

1. 2.23
2. 1.55
3. 3
4. 1.83
5. 2.68
6. 2.86
7. 2.31
8. 1.96

Parameters: items (list). Returns: protein stability index for each item.
1. Y11Q
2. L17F

1: 3.42; 2: 2.16

Parameters: items (list). Returns: protein stability index for each item.
1. E2H
2. D24G
3. L5D
4. L16G
5. P6D

[2.92, 2.28, 3.15, 2.84, 2.51]

Taken from the supplement of paper PMC10567573.
